Data credit: patent US20260109732A1

assay text: Diameter and PDI from DLS measurements of mRNA nanoparticles with lipid amines
Type: physicochemical
condition summary: CFTR mRNA nanoparticle with lipid amine
Counter-ions that a name gives are not always drawn.
measured attribute: Diameter (nm)

CC[C@H](CC[C@@H](C)[C@H]1CC[C@H]2[C@@H]3CC=C4C[C@@H](OC(=O)CCCC(=O)N(CCCCCCCC(C)N)CCC(C)N)CC[C@]4(C)[C@H]3CC[C@]12C)C(C)C (stereo partly drawn) [SA154, dihydrochloride]	72.8 nm
CC[C@H](CC[C@@H](C)[C@H]1CC[C@H]2[C@@H]3CC=C4C[C@@H](OC(=O)N(CCCN)CCCCCCCCN)CC[C@]4(C)[C@H]3CC[C@]12C)C(C)C [SA69, dihydrochloride]	74.0 nm
CC(C)CCC[C@@H](C)[C@H]1CC[C@H]2[C@@H]3CC=C4C[C@@H](SSCCC(=O)N(CCC(C)(C)N)CCC(C)(C)N)CC[C@]4(C)[C@H]3CC[C@]12C [SA174, dihydrochloride]	71.1 nm
CC(C)CCC[C@@H](C)[C@H]1CC[C@H]2[C@@H]3CC=C4C[C@@H](OC(=O)CCC(=O)N(CCCCCCCC(C)(C)N)CCC(C)(C)N)CC[C@]4(C)[C@H]3CC[C@]12C [SA164, dihydrochloride]	72.5 nm
CC[C@H](CC[C@@H](C)[C@H]1CC[C@H]2[C@@H]3CC=C4C[C@@H](OC(=O)CCC(=O)N(CCCCCCCC(C)N)CCC(C)N)CC[C@]4(C)[C@H]3CC[C@]12C)C(C)C (stereo partly drawn) [SA163, dihydrochloride]	70.6 nm

// Diameter (nm) lookup, compound = CC(C)CCC[C@@H](C)[C@H]1CC[C@H]2[C@@H]3CC=C4C[C@@H](SSCCCCC(=O)N(CCCN)CCCCCCCCN)CC[C@]4(C)[C@H]3CC[C@]12C [SA110, dihydrochloride] , result: 84.2 nm
